- Test system: Staphylococcus epidermidis
- ASSAY_NAME: Bactericidal activity against Staphylococcus epidermidis INCQS 00016 ATCC 12228 incubated for 24 hrs followed by transfer of microbial suspension to agar plates and measured after 24 hrs post transfer by resazurin dye-based colorimetric analysis
- Format: functional
- TEST_SETTINGS: ATCC 12228 INCQS 00016, 24 h, read-out: MBC99.9
OUTCOME_MEASURE: MBC (µg/mL)
The reply should be a number in µg/mL, with the unit left off.

Below, 3 molecules whose answers are already recorded.
COC(=O)c1c(C)nc(C)c2c1C(=O)C(Br)=C(N)C2=O = 32
NC1=CC(=O)c2ccccc2C1=O = 128
COC(=O)c1c(C)nc(C)c2c1C(=O)C=C(NC[C@H]1O[C@@H]3OC(C)(C)O[C@@H]3[C@H]3OC(C)(C)O[C@H]31)C2=O = 256

So what does the record say about MBC for COC(=O)c1c(C)nc(C)c2c1C(=O)C(Br)=C(NC[C@H]1O[C@@H]3OC(C)(C)O[C@@H]3[C@H]1O)C2=O ?
64

So what does the record say about MBC for COC(=O)c1c(C)nc(C)c2c1C(=O)C=C(NC[C@H]1O[C@@H]3OC(C)(C)O[C@@H]3[C@H]1O)C2=O ?
256

So what does the record say about MBC for COC(=O)c1c(C)nc(C)c2c1C(=O)C(Cl)=C(N)C2=O ?
32

So what does the record say about MBC for NC1=C(Br)C(=O)c2ccccc2C1=O ?
128

So what does the record say about MBC for COC(=O)c1c(C)nc(C)c2c1C(=O)C(Cl)=C(NC[C@H]1O[C@@H]3OC(C)(C)O[C@@H]3[C@H]1O)C2=O ?
32

----------
Entries and their MIC
- System: Escherichia coli
- ASSAY_NAME: Antimicrobial activity against Escherichia coli INCQS 00033 ATCC 25922 after 24 hrs by microdilution assay
- Type: functional
- TEST_SETTINGS: ATCC 25922 INCQS 00033, 24 h
The reply should be a number in mg/L, with the unit left off.

Below, 9 molecules whose answers are already recorded.
NC1=C(Cl)C(=O)c2ccccc2C1=O = 128
NC1=C(Br)C(=O)c2ccccc2C1=O = 64
COC(=O)c1c(C)nc(C)c2c1C(=O)C(Br)=C(NC[C@H]1O[C@@H](OC)[C@@H]3OC(C)(C)O[C@@H]31)C2=O = 8
COC(=O)c1c(C)nc(C)c2c1C(=O)C(Br)=C(N)C2=O = 8
NC1=CC(=O)c2ccccc2C1=O = 32
CC1(C)O[C@H]2O[C@H](CNC3=C(Br)C(=O)c4ccccc4C3=O)[C@H](O)[C@H]2O1 = 16
CC1(C)O[C@H]2[C@@H](O1)[C@@H](CNC1=C(Cl)C(=O)c3ccccc3C1=O)O[C@@H]1OC(C)(C)O[C@@H]12 = 16
CO[C@@H]1O[C@H](CNC2=C(Br)C(=O)c3ccccc3C2=O)[C@H]2OC(C)(C)O[C@@H]12 = 32
CC1(C)O[C@H]2O[C@H](CNC3=C(Cl)C(=O)c4ccccc4C3=O)[C@H](O)[C@H]2O1 = 4

Would you kindly look at the next entry?
So what does the record say about MIC for CO[C@@H]1O[C@H](CNC2=C(Cl)C(=O)c3ccccc3C2=O)[C@H]2OC(C)(C)O[C@@H]12 ?
8

----------
- ASSAY_NAME: Hemolytic activity against human erythrocytes assessed as hemolysis at 200 ug/ml after 3 hrs by spectrophotometric analysis relative to control
- Format: ADME, cell-based, Erythrocyte
- TEST_SETTINGS: read-out: Activity
Entries and their hemolysis at 3 h, 200 ug/ml

COC(=O)c1c(C)nc(C)c2c1C(=O)C(Br)=C(NC[C@H]1O[C@@H]3OC(C)(C)O[C@@H]3[C@H]1O)C2=O = < 10%

So what does the record say about hemolysis at 3 h, 200 ug/ml for COC(=O)c1c(C)nc(C)c2c1C(=O)C=C(N)C2=O ?
< 10%

So what does the record say about hemolysis at 3 h, 200 ug/ml for COC(=O)c1c(C)nc(C)c2c1C(=O)C(Br)=C(NC[C@H]1O[C@@H](OC)[C@@H]3OC(C)(C)O[C@@H]31)C2=O ?
< 10%

So what does the record say about hemolysis at 3 h, 200 ug/ml for COC(=O)c1c(C)nc(C)c2c1C(=O)C(Cl)=C(NC[C@H]1O[C@@H]3OC(C)(C)O[C@@H]3[C@H]3OC(C)(C)O[C@H]31)C2=O ?
< 10%

So what does the record say about hemolysis at 3 h, 200 ug/ml for CO[C@@H]1O[C@H](CNC2=CC(=O)c3ccccc3C2=O)[C@H]2OC(C)(C)O[C@@H]12 ?
< 10%

So what does the record say about hemolysis at 3 h, 200 ug/ml for CC1(C)O[C@H]2O[C@H](CNC3=C(Br)C(=O)c4ccccc4C3=O)[C@H](O)[C@H]2O1 ?
< 10%

So what does the record say about hemolysis at 3 h, 200 ug/ml for CO[C@@H]1O[C@H](CNC2=C(Cl)C(=O)c3ccccc3C2=O)[C@H]2OC(C)(C)O[C@@H]12 ?
< 10%

So what does the record say about hemolysis at 3 h, 200 ug/ml for COC(=O)c1c(C)nc(C)c2c1C(=O)C(Cl)=C(N)C2=O ?
10.1 to 14.4%

So what does the record say about hemolysis at 3 h, 200 ug/ml for CC1(C)O[C@H]2[C@@H](O1)[C@@H](CNC1=CC(=O)c3ccccc3C1=O)O[C@@H]1OC(C)(C)O[C@@H]12 ?
< 10%

----------
Entries and their zone of inhibition at 5000 µg/mL
- Test system: Staphylococcus aureus
- ASSAY_NAME: Antimicrobial activity against Staphylococcus aureus INCQS 00015 ATCC 25923 assessed as zone of inhibition at 5 mg/ml after 18 to 24 hrs by disc diffusion method
- Type: functional
- TEST_SETTINGS: read-out: IZ
The reply should be a number in mm, with the unit left off.

COC(=O)c1c(C)nc(C)c2c1C(=O)C(Cl)=C(NC[C@H]1O[C@@H]3OC(C)(C)O[C@@H]3[C@H]3OC(C)(C)O[C@H]31)C2=O = 0
CC1(C)O[C@H]2O[C@H](CNC3=CC(=O)c4ccccc4C3=O)[C@H](O)[C@H]2O1 = 0
CO[C@@H]1O[C@H](CNC2=CC(=O)c3ccccc3C2=O)[C@H]2OC(C)(C)O[C@@H]12 = 0

Would you kindly look at the next entry?
So what does the record say about zone of inhibition at 5000 µg/mL for NC1=C(Cl)C(=O)c2ccccc2C1=O ?
12

----------
Entries and their hemolysis at 3 h, 200 ug/ml
- ASSAY_NAME: Hemolytic activity against human erythrocytes assessed as hemolysis at 200 ug/ml after 3 hrs by spectrophotometric analysis relative to control
- Type: ADME, cell-based, Erythrocyte
- TEST_SETTINGS: read-out: Activity

CO[C@@H]1O[C@H](CNC2=C(Br)C(=O)c3ccccc3C2=O)[C@H]2OC(C)(C)O[C@@H]12 = < 10%
NC1=C(Br)C(=O)c2ccccc2C1=O = 10.1 to 14.4%

Would you kindly look at the next entry?
So what does the record say about hemolysis at 3 h, 200 ug/ml for COC(=O)c1c(C)nc(C)c2c1C(=O)C(Br)=C(N)C2=O ?
10.1 to 14.4%

----------
Entries and their hemolysis at 3 h, 200 ug/ml
- ASSAY_NAME: Hemolytic activity against human erythrocytes assessed as hemolysis at 200 ug/ml after 3 hrs by spectrophotometric analysis relative to control
- Format: ADME, cell-based, Erythrocyte
- TEST_SETTINGS: read-out: Activity

Below, 3 molecules whose answers are already recorded.
NC1=C(Cl)C(=O)c2ccccc2C1=O = 10.1 to 14.4%
CC1(C)O[C@H]2O[C@H](CNC3=C(Cl)C(=O)c4ccccc4C3=O)[C@H](O)[C@H]2O1 = 10.1 to 14.4%
COC(=O)c1c(C)nc(C)c2c1C(=O)C=C(NC[C@H]1O[C@@H]3OC(C)(C)O[C@@H]3[C@H]3OC(C)(C)O[C@H]31)C2=O = < 10%

So what does the record say about hemolysis at 3 h, 200 ug/ml for COC(=O)c1c(C)nc(C)c2c1C(=O)C(Br)=C(NC[C@H]1O[C@@H]3OC(C)(C)O[C@@H]3[C@H]3OC(C)(C)O[C@H]31)C2=O ?
< 10%

So what does the record say about hemolysis at 3 h, 200 ug/ml for CC1(C)O[C@H]2[C@@H](O1)[C@@H](CNC1=C(Cl)C(=O)c3ccccc3C1=O)O[C@@H]1OC(C)(C)O[C@@H]12 ?
< 10%

So what does the record say about hemolysis at 3 h, 200 ug/ml for COC(=O)c1c(C)nc(C)c2c1C(=O)C(Cl)=C(NC[C@H]1O[C@@H]3OC(C)(C)O[C@@H]3[C@H]1O)C2=O ?
10.1 to 14.4%

So what does the record say about hemolysis at 3 h, 200 ug/ml for COC(=O)c1c(C)nc(C)c2c1C(=O)C=C(NC[C@H]1O[C@@H]3OC(C)(C)O[C@@H]3[C@H]1O)C2=O ?
< 10%

So what does the record say about hemolysis at 3 h, 200 ug/ml for COC(=O)c1c(C)nc(C)c2c1C(=O)C=C(NC[C@H]1O[C@@H](OC)[C@@H]3OC(C)(C)O[C@@H]31)C2=O ?
< 10%
